target: human orexin-2 receptor (Homo sapiens (Human), UniProt O43614); assay: Intracellular calcium measurements (FLIPR), antagonism of orexin-A response; details: CHO cells expressing human orexin-2 receptor, 3 nM orexin-A, geometric mean if determined several times, read-out: IC50 OX2
Sequence (O43614 whole entry): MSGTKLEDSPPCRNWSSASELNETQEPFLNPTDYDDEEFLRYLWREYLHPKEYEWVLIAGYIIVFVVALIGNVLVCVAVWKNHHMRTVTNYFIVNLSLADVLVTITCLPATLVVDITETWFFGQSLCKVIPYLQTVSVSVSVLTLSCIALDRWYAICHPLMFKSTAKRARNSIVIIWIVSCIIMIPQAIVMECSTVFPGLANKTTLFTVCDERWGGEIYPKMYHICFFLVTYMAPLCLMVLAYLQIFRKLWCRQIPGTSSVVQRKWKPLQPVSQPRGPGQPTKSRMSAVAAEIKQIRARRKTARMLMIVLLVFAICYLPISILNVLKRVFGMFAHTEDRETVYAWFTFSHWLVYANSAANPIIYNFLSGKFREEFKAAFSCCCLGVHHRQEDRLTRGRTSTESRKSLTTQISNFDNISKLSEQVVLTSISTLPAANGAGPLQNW
So basically every entry gets a class from its IC50, ranges being one (below 6 nM), two (6 nM to below 70 nM), three (70 nM or more)

                           structure_smiles  group_label
0  O=C(c1cc(OC(F)(F)F)ccc1-n1nccn1)N1CC[C@H]1c1nc(-c2ccccc2OC(F)(F)F)no1        three

Okay, next one:
## Input Category of `COc1c(Cl)cccc1-c1nc([C@@H]2CCN2C(=O)c2cc(C)ccc2-n2nccn2)no1` :
## Output one

###

# pIC50 values compiled below
target: human orexin-2 receptor (Homo sapiens (Human), UniProt O43614); assay: Intracellular calcium measurements (FLIPR), antagonism of orexin-A response; details: CHO cells expressing human orexin-2 receptor, 3 nM orexin-A, geometric mean if determined several times, read-out: IC50 OX2
Schema: pIC50 number; meaning minus log10 of the concentration expressed in molar units.

>>> df
                                   molecule  metric  recorded_value
0  Cc1c(Cl)cccc1-c1noc([C@@H]2CCN2C(=O)c2ncsc2-c2cccc(Cl)c2)n1   pIC50            6.44
1  Cc1cc(-n2nccn2)c(C(=O)N2CC[C@H]2c2nc(-c3ccccc3OC(F)(F)F)no2)cc1Cl   pIC50            7.89
2  Cc1cc(C(=O)N2CC[C@H]2c2nc(-c3cccc(Cl)c3C)no2)c(-n2nccn2)cc1C   pIC50            8.70
3  Cc1cc(C(=O)N2CC[C@H]2c2noc(-c3ccccc3OC(F)(F)F)n2)c(-n2nccn2)cc1C   pIC50            8.52
4  COc1cc(C(=O)N2CC[C@H]2c2noc(-c3cccc(Cl)c3C)n2)c(-c2ncccn2)cc1C   pIC50            8.30
5  O=C(c1ncsc1-c1ccccc1)N1CC[C@H]1c1nc(-c2ccccc2OC(F)(F)F)no1   pIC50            6.58

## Input Report pIC50, nothing else, for this molecule: `Cc1ccc(C(=O)N2CC[C@H]2c2nnc(-c3ccccc3)[nH]2)c(-n2nccn2)c1`
## Output 6.49

## Input Tell us which pIC50 value is on record for `Cc1cccc(-c2scnc2C(=O)N2CC[C@H]2c2nc(-c3ccccc3OC(F)(F)F)no2)c1`
## Output 6.47

###

molecular target: human orexin-1 receptor (Homo sapiens (Human), UniProt O43613); test: Intracellular calcium measurements (FLIPR), antagonism of orexin-A response; details: CHO cells expressing human orexin-1 receptor, 3 nM orexin-A, geometric mean if determined several times, read-out: IC50 OX1
Sequence (O43613 whole entry): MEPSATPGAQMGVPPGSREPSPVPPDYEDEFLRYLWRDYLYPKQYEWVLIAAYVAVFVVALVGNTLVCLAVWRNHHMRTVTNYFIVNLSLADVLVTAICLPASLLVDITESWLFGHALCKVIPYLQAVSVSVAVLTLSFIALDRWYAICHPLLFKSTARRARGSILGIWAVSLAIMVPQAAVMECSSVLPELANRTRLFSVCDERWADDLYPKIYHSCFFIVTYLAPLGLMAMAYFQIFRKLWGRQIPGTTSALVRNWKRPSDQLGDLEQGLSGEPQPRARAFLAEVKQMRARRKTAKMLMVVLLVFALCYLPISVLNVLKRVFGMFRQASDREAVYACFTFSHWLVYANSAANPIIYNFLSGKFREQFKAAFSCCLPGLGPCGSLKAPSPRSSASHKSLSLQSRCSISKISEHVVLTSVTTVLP
Threshold-based label: IC50 under 300 nM gives label 1, IC50 not under 300 nM gives label 0.

Check out these entries, answers already filled in.
                                   molecule                                       tgt  group_label
0  Cc1cc(C(=O)N2CC[C@H]2c2nc(-c3cccc(F)c3C)no2)c(-n2nccn2)cc1C [Example 21]  human orexin-1 receptor (Homo sapiens (Human), UniProt O43613)      label 1
1  O=C(c1cc(OC(F)(F)F)ccc1-n1nccn1)N1CC[C@H]1c1nc(-c2ccccc2OC(F)(F)F)no1 [Example 47]  human orexin-1 receptor (Homo sapiens (Human), UniProt O43613)      label 0
2  Cc1c(Cl)cccc1-c1noc([C@@H]2CCN2C(=O)c2ccc(Cl)cc2-n2nccn2)n1 [Example 76]  human orexin-1 receptor (Homo sapiens (Human), UniProt O43613)      label 0
3  Cc1ccc(-n2nccn2)c(C(=O)N2CC[C@H]2c2nc(-c3cc(C)ccc3C)no2)c1 [Example 10]  human orexin-1 receptor (Homo sapiens (Human), UniProt O43613)      label 0
4  Cc1c(Cl)cccc1-c1noc([C@@H]2CCN2C(=O)c2cc(OC(F)(F)F)ccc2-n2nccn2)n1 [Example 65]  human orexin-1 receptor (Homo sapiens (Human), UniProt O43613)      label 0
5  COc1c(Cl)cccc1-c1nc([C@@H]2CCN2C(=O)c2ccc(Cl)cc2-n2nccn2)no1 [Example 119]  human orexin-1 receptor (Homo sapiens (Human), UniProt O43613)      label 1
6  Cc1cc(-n2nccn2)c(C(=O)N2CC[C@H]2c2nc(-c3cccc(Cl)c3C)no2)cc1Cl [Example 82]  human orexin-1 receptor (Homo sapiens (Human), UniProt O43613)      label 1
7  COc1cc(C(=O)N2CC[C@H]2c2nc(-c3ccccc3OC(F)(F)F)no2)c(-n2nccn2)cc1C [Example 27]  human orexin-1 receptor (Homo sapiens (Human), UniProt O43613)      label 1
8  COc1cc(C(=O)N2CC[C@H]2c2nc(-c3cccc(F)c3OC)no2)c(-n2nccn2)cc1C [Example 17]  human orexin-1 receptor (Homo sapiens (Human), UniProt O43613)      label 0
9  O=C(c1ccccc1-c1ccccc1)N1CC[C@H]1c1nc(-c2ccccc2OC(F)(F)F)no1 [Example 54]  human orexin-1 receptor (Homo sapiens (Human), UniProt O43613)      label 1

## Input Does the reported IC50 of the following molecule sit strictly below 300 nM? Cc1ccc(-n2nccn2)c(C(=O)N2CC[C@H]2c2nc(-c3cccc(Cl)c3C)no2)c1 [Example 7]
## Output label 1

## Input Does the reported IC50 of the following molecule sit strictly below 300 nM? Cc1cc(-n2nccn2)c(C(=O)N2CC[C@H]2c2noc(-c3ccccc3OC(F)(F)F)n2)cc1Cl [Example 95]
## Output label 1

## Input Given the entry Cc1ccc(-c2ccccc2)c(C(=O)N2CC[C@H]2c2nnc(-c3ccccc3OC(F)(F)F)[nH]2)c1 [Example 134] , would its reported IC50 be below 300 nM?
## Output label 0

## Input Hello, is IC50 of the following molecule strictly smaller than 300 nM? Cc1ccc(-c2ccccc2)c(C(=O)N2CC[C@H]2c2noc(-c3cccc(Cl)c3C)n2)c1 [Example 114]
## Output label 1

###

# key: entry, value: pIC50
target: human orexin-1 receptor (Homo sapiens (Human), UniProt O43613); test: Intracellular calcium measurements (FLIPR), antagonism of orexin-A response; conditions: CHO cells expressing human orexin-1 receptor, 3 nM orexin-A, geometric mean if determined several times, read-out: IC50 OX1
Please report pIC50 as the negative decimal logarithm of the molar concentration, giving only the number.

A selection of reference data follows.
In [3]: df
Out[3]:
                           structure_smiles  recorded_value
0  Cc1ccc(-c2ncccn2)c(C(=O)N2CC[C@H]2c2noc(-c3cccc(Cl)c3C)n2)c1            6.22
1  Cc1ccc(-n2nccn2)c(C(=O)N2CC[C@H]2c2nc(-c3cc(F)cc(F)c3)no2)c1            5.63
2  Cc1ccc(C(=O)N2CC[C@H]2c2nnc(-c3ccccc3)[nH]2)c(-n2nccn2)c1            5.04
3  CCOc1ncccc1-c1nc([C@@H]2CCN2C(=O)c2ccc(C)cc2-n2nccn2)no1            6.59
4  COc1cc(C(=O)N2CC[C@H]2c2nc(-c3cccc(Cl)c3C)no2)c(-n2nccn2)cc1F            6.02

## Input Read off the recorded pIC50 for `COc1cc(C(=O)N2CC[C@H]2c2noc(-c3ccccc3OC(F)(F)F)n2)c(-n2nccn2)cc1F`
## Output 5.87

## Input For `Cc1c(Cl)cccc1-c1noc([C@@H]2CCN2C(=O)c2ccccc2-n2nccn2)n1` , write its pIC50.
## Output 5.96

## Input // fetch pIC50 given entry `Cc1ccc(-c2ccccc2)c(C(=O)N2CC[C@H]2c2nc(-c3ccccc3OC(F)(F)F)no2)c1`
## Output 7.12

###

target: UniProt:O43614; experiment: Intracellular calcium measurements (FLIPR), antagonism of orexin-A response; conditions: CHO cells expressing human orexin-2 receptor, 3 nM orexin-A, geometric mean if determined several times, read-out: IC50 OX2
Note to self: IC50 under 10 nM means criterion met, ties and anything higher get criterion not met.

Worked set:
In [3]: df
Out[3]:
                                   compound             tgt        group_label
0  COc1cc(C(=O)N2CC[C@H]2c2nc(-c3cccc(F)c3C)no2)c(-n2nccn2)cc1F  UniProt:O43614  criterion not met
1  Cc1ccc(-n2nccn2)c(C(=O)N2CC[C@H]2c2nc(-c3cc(F)cc(F)c3)no2)c1  UniProt:O43614  criterion not met
2  COc1cc(C(=O)N2CC[C@H]2c2nc(-c3ccccc3OC(F)(F)F)no2)c(-n2nccn2)cc1C  UniProt:O43614      criterion met
3  O=C(c1cc(Cl)ccc1-n1nccn1)N1CC[C@H]1c1nc(-c2ccccc2OC(F)(F)F)no1  UniProt:O43614  criterion not met
4  O=C(c1ncsc1-c1cccc(Cl)c1)N1CC[C@H]1c1nc(-c2ccccc2OC(F)(F)F)no1  UniProt:O43614  criterion not met

## Input State whether 10 nM exceeds IC50 recorded for COc1c(F)cccc1-c1noc([C@@H]2CCN2C(=O)c2ccc(C)cc2-n2nccn2)n1 [Example 20] .
## Output criterion not met

## Input Does the reported IC50 of `Cc1ccc(-n2nccn2)c(C(=O)N2CC[C@H]2c2noc(-c3cccc(Cl)c3C)n2)c1` stay below 10 nM?
## Output criterion met

## Input Does the reported IC50 of the following compound sit strictly below 10 nM? `O=C(c1ccc(Cl)cc1-n1nccn1)N1CC[C@H]1c1nc(-c2ccccc2OC(F)(F)F)no1`
## Output criterion not met

## Input Dear reviewer, please state whether `Cc1ccc(-n2nccn2)c(C(=O)N2CC[C@H]2c2nc(-c3c(C)cccc3F)no2)c1` has IC50 strictly beneath 10 nM.
## Output criterion not met

## Input Record `Cc1ccc(C(=O)N2CC[C@H]2c2nnc(-c3ccccc3OC(F)(F)F)[nH]2)c(-n2nccn2)c1` : is its IC50 strictly below 10 nM?
## Output criterion not met

## Input In the record for `Cc1ccc(-n2nccn2)c(C(=O)N2CC[C@H]2c2noc(-c3ccccc3OC(F)(F)F)n2)c1` , is IC50 less than 10 nM?
## Output criterion not met
